test: Multiple ascending dose; assay type: in vivo, human; details: human, plasma, oral, 25 mg, C trough, ng/mL GM (%CVb), 25 mg QD, Day 14, 24 h
outcomeMeasure: concentration at 24 h (ng/mL)
Please state the figure in ng/mL; there is no need to write the unit.

What value of measured concentration at 24 h is listed for C=C(C)[C@@H]1CC[C@]2(NCCN3CCS(=O)(=O)CC3)CC[C@]3(C)[C@H](CC[C@@H]4[C@@]5(C)CC=C(C6=CC[C@@](COc7ncccc7C#N)(C(=O)O)CC6)C(C)(C)[C@@H]5CC[C@]43C)[C@@H]12 ?
588

====

assay: Multiple ascending dose; format: in vivo, human; conditions: human, plasma, oral, 25 mg
outcomeMeasure: half-life

Data request, read-out half-life, for C=C(C)[C@@H]1CC[C@]2(NCCN3CCS(=O)(=O)CC3)CC[C@]3(C)[C@H](CC[C@@H]4[C@@]5(C)CC=C(C6=CC[C@@](COc7ncccc7C#N)(C(=O)O)CC6)C(C)(C)[C@@H]5CC[C@]43C)[C@@H]12
85.8 h

====

assay: Multiple ascending dose; assay type: in vivo, human; settings: human, plasma, oral, 50 mg, C trough, ng/mL GM (%CVb), 50 mg QD, Day 1, 24 h
outcomeMeasure: concentration at 24 h (ng/mL)
Write the number in ng/mL without appending the unit.

Return reported concentration at 24 h; argument: C=C(C)[C@@H]1CC[C@]2(NCCN3CCS(=O)(=O)CC3)CC[C@]3(C)[C@H](CC[C@@H]4[C@@]5(C)CC=C(C6=CC[C@@](COc7ncccc7C#N)(C(=O)O)CC6)C(C)(C)[C@@H]5CC[C@]43C)[C@@H]12
189

====

test: Multiple ascending dose; assay type: in vivo, human; settings: human, plasma, oral, 50 mg
outcomeMeasure: AUC(0-t) (µg·h/mL)
Dear colleague, please return just the value in µg·h/mL, with no unit written.

// query AUC(0-t) value for entry C=C(C)[C@@H]1CC[C@]2(NCCN3CCS(=O)(=O)CC3)CC[C@]3(C)[C@H](CC[C@@H]4[C@@]5(C)CC=C(C6=CC[C@@](COc7ncccc7C#N)(C(=O)O)CC6)C(C)(C)[C@@H]5CC[C@]43C)[C@@H]12
3.56

====

assay: Single ascending dose; assay type: in vivo, human; conditions: human, plasma, oral, t 1/2, range across doses, part 1 single doses
outcomeMeasure: half-life

Suppose we examine the molecule C=C(C)[C@@H]1CC[C@]2(NCCN3CCS(=O)(=O)CC3)CC[C@]3(C)[C@H](CC[C@@H]4[C@@]5(C)CC=C(C6=CC[C@@](COc7ncccc7C#N)(C(=O)O)CC6)C(C)(C)[C@@H]5CC[C@]43C)[C@@H]12 ; what half-life value has been reported?
67 to 97 h

====

assay: Multiple ascending dose; assay type: in vivo, human; conditions: human, plasma, oral, 50 mg, t max, h median (range), 50 mg QD, Day 14
outcomeMeasure: Tmax (h)
Give just the numeric value; h need not be written.

Look at this molecule and give its reported Tmax. C=C(C)[C@@H]1CC[C@]2(NCCN3CCS(=O)(=O)CC3)CC[C@]3(C)[C@H](CC[C@@H]4[C@@]5(C)CC=C(C6=CC[C@@](COc7ncccc7C#N)(C(=O)O)CC6)C(C)(C)[C@@H]5CC[C@]43C)[C@@H]12
7.03
